- SYSTEM_NAME: T1, human PD-L1 (human, UniProt Q9NZQ7 19-290)
- T1 construct: whole, on cells; also called huPD-L1
- EXPERIMENTAL_DETAILS: flow cytometry, CHO cells stably expressing huPD-L1, 33.3 nM, PE anti-human Fc
QUANTITY_MEASURED: Fold change to WT (fold)
Number in fold, nothing else.

Challenge: # lookup: Fold change to WT of CD80 WT IgV-Fc (Fc fusion, not shown: a dimerising Fc or GST, also called WT CD80-IgV-Fc; wild-type CD80 IgV-Fc) VIHVTKEVKEVATLSCGHNVSVEELAQTRIYWQKEKKMVLTMMSGDMNIWPEYKNRTIFDITNNLSIVILALRPSDEGTYECVVLKYEKDAFKREHLAEVTLSVKAD
Response given: 1

Challenge: Could you tell me which Fold change to WT is on file for E35D/M47L/V68M/A71G/L85Q/D90G CD80 IgV-Fc (Fc fusion, not shown: a dimerising Fc or GST) VIHVTKEVKEVATLSCGHNVSVEELAQTRIYWQKDKKMVLTMMSGDLNIWPEYKNRTIFDITNNLSIMILGLRPSDEGTYECVVQKYEKGAFKREHLAEVTLSVKAD ?
Response given: 202

Challenge: What value of Fold change to WT has been recorded for this entry: H18Y/V22A/E35D/T41S/M47V/T62N/A71G/A91G CD80 IgV-Fc (Fc fusion, not shown: a dimerising Fc or GST) VIHVTKEVKEVATLSCGYNVSAEELAQTRIYWQKDKKMVLSMMSGDVNIWPEYKNRTIFDINNNLSIVILGLRPSDEGTYECVVLKYEKDGFKREHLAEVTLSVKAD
Response given: 101

Challenge: Requested field: Fold change to WT. Item: S15T/H18Y/E35D/M47V/T62A/N64S/A71G/L85Q/D90N CD80 IgV-Fc (Fc fusion, not shown: a dimerising Fc or GST) VIHVTKEVKEVATLTCGYNVSVEELAQTRIYWQKDKKMVLTMMSGDVNIWPEYKNRTIFDIANSLSIVILGLRPSDEGTYECVVQKYEKNAFKREHLAEVTLSVKAD
Response given: 166
